A collection of molecules and their measured viability
# assay_context: cell viability/%
Where a SMILES comes first, the peptide text is derived from it. [ ]: non-standard residue; d: D form. The star is where a group is joined. NHCH2CH2OH = OCCN*; For = O=C*
Give the quantity in %, number only.

[
  {
    "molecule": "CC(C)C[C@@H](NC(=O)[C@H](C)NC(=O)[C@H](NC(=O)[C@H](C)NC(=O)CNC(=O)[C@@H](NC=O)C(C)C)C(C)C)C(=O)N[C@H](C(=O)N[C@H](CC(C)C)C(=O)N[C@@H](Cc1c[nH]c2ccccc12)C(=O)N[C@@H](C(=O)N[C@@H](Cc1c[nH]c2ccccc12)C(=O)N[C@H](CC(C)C)C(=O)N[C@@H](Cc1c[nH]c2ccccc12)C(=O)N[C@H](CC(C)C)C(=O)N[C@@H](Cc1c[nH]c2ccccc12)C(=O)NCCO)[C@H](C)O)C(C)C [compound 11400] (For-VGA[dV]A[dL]V[dL]W[dT]W[dL]W[dL]W-NHCH2CH2OH)",
    "experimental_value": 53
  }
]

# lookup: viability of CC(C)C[C@@H](NC(=O)[C@H](C)NC(=O)CNC(=O)[C@@H](NC=O)C(C)C)C(=O)N[C@@H](C)C(=O)N[C@H](CC(C)C)C(=O)N[C@H](C(=O)N[C@H](CC(C)C)C(=O)N[C@@H](Cc1c[nH]c2ccccc12)C(=O)N[C@@H](C(=O)N[C@@H](Cc1c[nH]c2ccccc12)C(=O)N[C@H](CC(C)C)C(=O)N[C@@H](Cc1c[nH]c2ccccc12)C(=O)N[C@@H](C(=O)N[C@@H](Cc1c[nH]c2ccccc12)C(=O)NCCO)[C@H](C)O)C(C)C)C(C)C [compound 770] (For-VGA[dL]A[dL]V[dL]W[dV]W[dL]W[dT]W-NHCH2CH2OH)
100

# lookup: viability of CC(C)C[C@@H](NC(=O)[C@H](C)NC(=O)CNC(=O)[C@@H](NC=O)C(C)C)C(=O)N[C@@H](C)C(=O)N[C@@H](C(=O)N[C@H](C(=O)N[C@H](CC(C)C)C(=O)N[C@@H](Cc1c[nH]c2ccccc12)C(=O)N[C@H](CC(C)C)C(=O)N[C@@H](Cc1c[nH]c2ccccc12)C(=O)N[C@@H](C(=O)N[C@@H](Cc1c[nH]c2ccccc12)C(=O)N[C@@H](C(=O)N[C@@H](Cc1c[nH]c2ccccc12)C(=O)NCCO)C(C)C)C(C)C)C(C)C)[C@H](C)O [compound 1898] (For-VGA[dL]A[dT]V[dL]W[dL]W[dV]W[dV]W-NHCH2CH2OH)
100

# lookup: viability of CC(C)C[C@@H](NC(=O)[C@H](C)NC(=O)CNC(=O)[C@@H](NC=O)C(C)C)C(=O)N[C@@H](C)C(=O)N[C@@H](C(=O)N[C@H](C(=O)N[C@H](CC(C)C)C(=O)N[C@@H](Cc1c[nH]c2ccccc12)C(=O)N[C@H](CC(C)C)C(=O)N[C@@H](Cc1c[nH]c2ccccc12)C(=O)N[C@H](CC(C)C)C(=O)N[C@@H](Cc1c[nH]c2ccccc12)C(=O)N[C@@H](C(=O)N[C@@H](Cc1c[nH]c2ccccc12)C(=O)NCCO)C(C)C)C(C)C)[C@H](C)O [compound 8288] (For-VGA[dL]A[dT]V[dL]W[dL]W[dL]W[dV]W-NHCH2CH2OH)
47.4

# lookup: viability of CC(C)C[C@@H](NC(=O)[C@H](C)NC(=O)[C@H](NC(=O)[C@H](C)NC(=O)CNC(=O)[C@@H](NC=O)C(C)C)C(C)C)C(=O)N[C@H](C(=O)N[C@@H](C(=O)N[C@@H](Cc1c[nH]c2ccccc12)C(=O)N[C@H](CC(C)C)C(=O)N[C@@H](Cc1c[nH]c2ccccc12)C(=O)N[C@@H](C(=O)N[C@@H](Cc1c[nH]c2ccccc12)C(=O)N[C@@H](C(=O)N[C@@H](Cc1c[nH]c2ccccc12)C(=O)NCCO)C(C)C)[C@H](C)O)C(C)C)C(C)C [compound 8473] (For-VGA[dV]A[dL]V[dV]W[dL]W[dT]W[dV]W-NHCH2CH2OH)
53.6

# lookup: viability of CC(C)C[C@@H](NC(=O)[C@H](C)NC(=O)CNC(=O)[C@@H](NC=O)C(C)C)C(=O)N[C@@H](C)C(=O)N[C@@H](C(=O)N[C@H](C(=O)N[C@@H](C(=O)N[C@@H](Cc1c[nH]c2ccccc12)C(=O)N[C@H](CC(C)C)C(=O)N[C@@H](Cc1c[nH]c2ccccc12)C(=O)N[C@@H](C(=O)N[C@@H](Cc1c[nH]c2ccccc12)C(=O)N[C@@H](C(=O)N[C@@H](Cc1c[nH]c2ccccc12)C(=O)NCCO)C(C)C)C(C)C)C(C)C)C(C)C)[C@H](C)O [compound 6549] (For-VGA[dL]A[dT]V[dV]W[dL]W[dV]W[dV]W-NHCH2CH2OH)
100

# lookup: viability of CC(C)C[C@@H](NC(=O)[C@H](C)NC(=O)CNC(=O)[C@@H](NC=O)C(C)C)C(=O)N[C@@H](C)C(=O)N[C@H](CC(C)C)C(=O)N[C@H](C(=O)N[C@H](CC(C)C)C(=O)N[C@@H](Cc1c[nH]c2ccccc12)C(=O)N[C@@H](C(=O)N[C@@H](Cc1c[nH]c2ccccc12)C(=O)N[C@@H](C(=O)N[C@@H](Cc1c[nH]c2ccccc12)C(=O)N[C@H](CC(C)C)C(=O)N[C@@H](Cc1c[nH]c2ccccc12)C(=O)NCCO)[C@H](C)O)C(C)C)C(C)C [compound 5736] (For-VGA[dL]A[dL]V[dL]W[dV]W[dT]W[dL]W-NHCH2CH2OH)
95.5

# lookup: viability of CC(C)C[C@@H](NC(=O)[C@H](C)NC(=O)[C@H](NC(=O)[C@H](C)NC(=O)CNC(=O)[C@@H](NC=O)C(C)C)[C@H](C)O)C(=O)N[C@H](C(=O)N[C@H](CC(C)C)C(=O)N[C@@H](Cc1c[nH]c2ccccc12)C(=O)N[C@H](CC(C)C)C(=O)N[C@@H](Cc1c[nH]c2ccccc12)C(=O)N[C@H](CC(C)C)C(=O)N[C@@H](Cc1c[nH]c2ccccc12)C(=O)N[C@H](CC(C)C)C(=O)N[C@@H](Cc1c[nH]c2ccccc12)C(=O)NCCO)C(C)C [compound 5618] (For-VGA[dT]A[dL]V[dL]W[dL]W[dL]W[dL]W-NHCH2CH2OH)
85.1
